Just for reference, patent US4377583A is where these values come from.

- assay_comment: Water solubility of isolated salts of MJ 12175 (redissolution)
- Type: physicochemical
- condition_details: water, isolated salts, redissolution
Structures can show the parent of a compound that is named as a salt.
reported_endpoint: solubility

What does the data say about its solubility? Entry: Cc1c(CC(C)C)sc2nc(C(=O)O)[nH]c(=O)c12 [Salt No. 2]
< 40 mg/mL

---

- assay_comment: pH of salts of MJ 12175
- Assay type: physicochemical
- condition_details: room temperature (about 25° C.)
- Source text: Many conventional pharmaceutically acceptable amine salts of MJ 12175 are not well suited for the present use due to limited solubility, lack of stability, pH ranges differing sufficiently from physiological pH (~7.4) to the extent that irritation of tissue becomes a problem. The amine salts of MJ 12175 shown in Table 1 were first prepared in situ by adding the amine to a suspension of MJ 12175 in a quantity of water sufficient to give a 4% aqueous solution of the resulting salt. […]
Counter-ions that a name gives are not always drawn.
Task for the reader: assign each of the following molecules its reported pH.

Examples from the recorded data:
Cc1c(CC(C)C)sc2nc(C(=O)O)[nH]c(=O)c12 [compound 9]	6.81
Cc1c(CC(C)C)sc2nc(C(=O)O)[nH]c(=O)c12 [Salt No. 2]	6.4
Cc1c(CC(C)C)sc2nc(C(=O)O)[nH]c(=O)c12 [compound 3]	4.7
Cc1c(CC(C)C)sc2nc(C(=O)O)[nH]c(=O)c12 [compound 14]	9.59
Cc1c(CC(C)C)sc2nc(C(=O)O)[nH]c(=O)c12 [compound 13]	8.08

The following molecules each have a reported value; give each one's pH.
1. Cc1c(CC(C)C)sc2nc(C(=O)O)[nH]c(=O)c12 [compound 10]
2. Cc1c(CC(C)C)sc2nc(C(=O)O)[nH]c(=O)c12 [compound 12]
3. Cc1c(CC(C)C)sc2nc(C(=O)O)[nH]c(=O)c12 [compound 11]

4.55
6.29
6.42
